- METHOD NOTES: PK protocol, intravenous administration
- Assay type: in vivo, male Sprague Dawley rats
- CONDITION DETAILS: male, Sprague Dawley, plasma, dose 1.98 mg/kg, rat
Structures can show the parent of a compound that is named as a salt.
OUTCOME MEASURE: half-life (h)

• CC(C)c1cc(F)cc(-c2ccncc2)c1NC(=O)NS(=O)(=O)c1ccn(C(C)C)n1 [Example 10, ammonium salt] = 3.8

====

- METHOD NOTES: PK protocol, oral administration
- Type: in vivo
- CONDITION DETAILS: rat, male Sprague Dawley rats, 3 mg/kg, solution in DMSO:water [10:90], plasma
- Procedure: Pharmacokinetic parameters were determined in male Sprague Dawley rats (Charles River, UK, 250-350 g; or Vital River Laboratory Animal Technology Co Ltd, Beijing, China, 7-9 weeks old). Animals were individually housed during the study and maintained under a 12 h light/dark cycle. Animals had free access to food and water. For intravenous administration, compounds were formulated as a solution in water or DMSO:PBS [10:90] in 2 mL/kg dosing volume and administered via tail vein. […]
Counter-ions that a name gives are not always drawn.
OUTCOME MEASURE: Tmax (min)

• COc1cc(-c2ccc3c(c2NC(=O)NS(=O)(=O)c2ccn(C4CC4)n2)CCC3)ccn1 [Example 221, sodium salt] = 45
• COc1cc(-c2ccc3c(c2NC(=O)NS(=O)(=O)c2ccn(C(C)(C)CN(C)C)n2)CCC3)ccn1 = 30
